# System: cyprids of A. amphitrite
# assayComment: whole plant or invertebrate
# Type: in vivo
# conditions: Amphibalanus amphitrite, read-out: IC50 settlement-inhibiting activity
pIC50: −log10 of the molar value.
measuredProperty: pIC50

1) CC1=C2CC[C@@](C)(Cl)[C@@H](Br)C[C@]2(C)[C@@H](C)[C@@H](Br)[C@@H]1O [Compound 9, perforenol]; ~6.30

* * *

# assayComment: in vivo
# Type: in vivo
# conditions: Amphibalanus amphitrite, in vivo; 72 h exposure; read-out: LC50 Mortality
# Description: Adult A. amphitrite (Cirripedia, Balanidae) were collected from boat docks at Port Mikrolimano and Floisvos, Athens, Greece. Animals were cleaned of epibionts with a small hard brush and meticulously identified as individuals of the species. Adult barnacles were kept in separate aerated glass tanks (20 L) containing 200-μm filtered natural seawater at 27 °C and a 12:12 L:D photoperiod. Tanks were fed with 24-h hatched Artemia sp. […]
// returns Criterion not met unless LC50 at 72 h is strictly below 30 µM, in which case Criterion met

1. Cc1ccc(C2(C)CCC(=CBr)C2C)c(O)c1 (stereo not shown); Criterion met
2. C#CC=CCC1OC(C=CC)CC=CCC1Cl (stereo not shown); Criterion met
3. CC(C)C1=C2CCC(C)C2CC(C)(C)C1O (stereo not shown) [Compound 8, 4-hydroxy-5-brasilene]; Criterion met
4. C=CC(C)(O)CCC1C(=C)CCC(Br)C1(C)CCC(Br)C(C)(C)O (stereo not shown); Criterion not met
5. CC(=CC=CC1(C)CCC(Br)C(C)(C)O1)C1CCC(C)(O)C(Br)C1 (stereo not shown); Criterion not met
6. CC1(C(Br)CO)CC=C2C(C1)C(O)CC1C2(C)CCC(Br)C1(C)C (stereo not shown); Criterion met
7. Cc1cc(O)c(C2(C)CCC3CC32C)cc1Br (stereo not shown); Criterion met
8. CC(=O)OCC(Br)C1(C)CC=C2C(C1)C(O)CC1C2(C)CC(OC(C)=O)C2CC21C (stereo not shown) [Compound 15, deoxyparguerol 16-acetate]; Criterion not met
9. CC1=CC[C@@]2(C)C(=C(C)C(=O)[C@@H](O)[C@@H]2C)CC1; Criterion met
10. C=CC(C)(O)CC[C@@H]1C(=C)CC[C@@H](Br)[C@@]1(C)CCC1OC1(C)C (stereo partly shown); Criterion met
11. CC(C)[C@@H]1CC=C[C@H]2[C@H]3[C@](C)(CC[C@]12CBr)[C@@H](Br)CC[C@@]3(C)O [Bromosphaerol, reference compound]; Criterion met
12. C#CC=CCC1OC(C(Br)CC)CC(OC(C)=O)C(Cl)CC1Cl (stereo not shown); Criterion not met
13. C=C1CC[C@@](C)(c2ccc(C)cc2OC(C)=O)[C@H]1C [Compound 2, debromoallolaurinterol acetate]; Criterion not met
14. CC(C)[C@H]1CC(C)(C)[C@@H](O)C2=C1CC[C@H]2C [Compound 7, epibrasilenol]; Criterion met
15. C=C1C[C@H](O)[C@H](Br)C(C)(C)[C@@]12CCC(C)=C(Cl)C2; Criterion met
